Test system: P-gp
Assay text: In-vivo P-gp pharmacokinetic study with digoxin
Parameters: species or system SD rats
Condition: Sprague-Dawley, rat, plasma, po, 0.5 mg/kg, SD rats, digoxin 0.5 mg/kg 2 h after single dose garcinol 25 mg/kg (group DGX + Garcinol), plasma

Chemical smiles	Target under test	Cmax
C[C@H]1O[C@@H](O[C@H]2[C@@H](O)C[C@H](O[C@H]3[C@@H](O)C[C@H](O[C@H]4CC[C@@]5(C)[C@H](CC[C@@H]6[C@@H]5C[C@@H](O)[C@]5(C)[C@@H](C7=CC(=O)OC7)CC[C@]65O)C4)O[C@@H]3C)O[C@@H]2C)C[C@H](O)[C@@H]1O	P-gp	16.8 ng/mL

* * *

Tested on: P-gp
Assay text: In-vivo P-gp pharmacokinetic study with digoxin
Set-up: species or system SD rats
Condition: rat, po; SD rats, digoxin 0.5 mg/kg 2 h after single dose garcinol 25 mg/kg (group DGX + Garcinol), plasma

Molecule	Result units	half-life
C[C@H]1O[C@@H](O[C@H]2[C@@H](O)C[C@H](O[C@H]3[C@@H](O)C[C@H](O[C@H]4CC[C@@]5(C)[C@H](CC[C@@H]6[C@@H]5C[C@@H](O)[C@]5(C)[C@@H](C7=CC(=O)OC7)CC[C@]65O)C4)O[C@@H]3C)O[C@@H]2C)C[C@H](O)[C@@H]1O [DGX, digoxin]	h	7.32

* * *

System: CYP2C8
Assay text: CYP2C8 inhibition, probe substrate cocktail in rat liver microsomes (paclitaxel 6α-hydroxylation)
Assay type: in vitro ADME
Condition: pH 7.4, probe paclitaxel (6α-hydroxylation); rat liver microsomes 0.5 mg/mL, substrate paclitaxel, garcinol 0.11-30 µM
Endpoint name: IC50

Chemical smiles	Reported result
C=C(C)[C@@H](CC=C(C)C)C[C@@]12C[C@@H](CC=C(C)C)C(C)(C)[C@@](CC=C(C)C)(C(=O)C(C(=O)c3ccc(O)c(O)c3)=C1O)C2=O	> 30 µM

* * *

System: CYP2B6
Assay text: In-vivo CYP inhibition study, pharmacokinetics of probe bupropion and hydroxy bupropion
Condition: Sprague-Dawley, rat, plasma, po, 10 mg/kg

Compound	Tmax
CC(NC(C)(C)C)C(=O)c1cccc(Cl)c1 (stereo not shown)	2.5 h

* * *

Test system: P-gp
Assay text: In-vivo P-gp pharmacokinetic study with digoxin
Design: species or system SD rats
Condition: Sprague-Dawley, rat, po; SD rats, digoxin 0.5 mg/kg intragastric 2 h after vehicle (group DGX), plasma

Chemical smiles	Result units	AUC(0-inf)
C[C@H]1O[C@@H](O[C@H]2[C@@H](O)C[C@H](O[C@H]3[C@@H](O)C[C@H](O[C@H]4CC[C@@]5(C)[C@H](CC[C@@H]6[C@@H]5C[C@@H](O)[C@]5(C)[C@@H](C7=CC(=O)OC7)CC[C@]65O)C4)O[C@@H]3C)O[C@@H]2C)C[C@H](O)[C@@H]1O	µg·h/mL	0.254

* * *

System: CYP3A4
Assay text: in vivo
Condition: Sprague-Dawley, rat, plasma, po, 10 mg/kg
Endpoint name: Cmax (ng/mL)

Molecule	Reported result
Cc1ncc2n1-c1ccc(Cl)cc1C(c1ccccc1F)=NC2 [midazolam]	829

* * *

Test system: CYP3A4
Assay text: in vivo
Condition: Sprague-Dawley, rat, plasma, po, 10 mg/kg

Chemical smiles	Result units	half-life
Cc1ncc2n1-c1ccc(Cl)cc1C(c1ccccc1F)=NC2	h	3.12

* * *

Tested on: P-gp
Assay text: In-vivo P-gp pharmacokinetic study with digoxin
Set-up: species or system SD rats
Condition: Sprague-Dawley, rat, po; SD rats, digoxin 0.5 mg/kg intragastric 2 h after vehicle (group DGX), plasma

Molecule	Target under test	AUC(0-t) / ng·h/mL
C[C@H]1O[C@@H](O[C@H]2[C@@H](O)C[C@H](O[C@H]3[C@@H](O)C[C@H](O[C@H]4CC[C@@]5(C)[C@H](CC[C@@H]6[C@@H]5C[C@@H](O)[C@]5(C)[C@@H](C7=CC(=O)OC7)CC[C@]65O)C4)O[C@@H]3C)O[C@@H]2C)C[C@H](O)[C@@H]1O [DGX, digoxin]	P-gp	172

* * *

Tested on: P-gp
Assay text: In-vivo P-gp pharmacokinetic study with digoxin
Set-up: species or system SD rats
Condition: rat, po; SD rats, digoxin 0.5 mg/kg 2 h after single dose garcinol 25 mg/kg (group DGX + Garcinol), plasma

Chemical smiles	AUC(0-inf) [ng·h/mL]
C[C@H]1O[C@@H](O[C@H]2[C@@H](O)C[C@H](O[C@H]3[C@@H](O)C[C@H](O[C@H]4CC[C@@]5(C)[C@H](CC[C@@H]6[C@@H]5C[C@@H](O)[C@]5(C)[C@@H](C7=CC(=O)OC7)CC[C@]65O)C4)O[C@@H]3C)O[C@@H]2C)C[C@H](O)[C@@H]1O	172

* * *

Tested on: CYP2C19
Assay text: CYP2C19 inhibition, probe substrate cocktail in rat liver microsomes (S-mephenytoin 4-hydroxylation)
Assay type: in vitro ADME
Condition: pH 7.4, probe S-mephenytoin (4-hydroxylation), rat liver microsomes 0.5 mg/mL, garcinol 0.11-30 µM
pIC50: −log10 of the molar value.
Endpoint name: pIC50

Chemical smiles	Endpoint name	Reported result
C=C(C)[C@@H](CC=C(C)C)C[C@@]12C[C@@H](CC=C(C)C)C(C)(C)[C@@](CC=C(C)C)(C(=O)C(C(=O)c3ccc(O)c(O)c3)=C1O)C2=O	pIC50	4.79

* * *

System: P-gp
Assay text: In-vivo P-gp pharmacokinetic study with digoxin
Design: species or system SD rats
Condition: Sprague-Dawley, rat, po; SD rats, digoxin 0.5 mg/kg intragastric 2 h after vehicle (group DGX), plasma

Chemical smiles	Target under test	half-life
C[C@H]1O[C@@H](O[C@H]2[C@@H](O)C[C@H](O[C@H]3[C@@H](O)C[C@H](O[C@H]4CC[C@@]5(C)[C@H](CC[C@@H]6[C@@H]5C[C@@H](O)[C@]5(C)[C@@H](C7=CC(=O)OC7)CC[C@]65O)C4)O[C@@H]3C)O[C@@H]2C)C[C@H](O)[C@@H]1O	P-gp	15.1 h

* * *

Tested on: CYP2B6
Assay text: CYP2B6 inhibition, probe substrate cocktail in rat liver microsomes (bupropion hydroxylation)
Assay type: in vitro ADME
Condition: pH 7.4, probe bupropion (hydroxylation)

Chemical smiles	Target under test	Result units	IC50
C=C(C)[C@@H](CC=C(C)C)C[C@@]12C[C@@H](CC=C(C)C)C(C)(C)[C@@](CC=C(C)C)(C(=O)C(C(=O)c3ccc(O)c(O)c3)=C1O)C2=O	CYP2B6	nM	2100

Source: paper PMC8705362
